# Tested on: U2OS
# measurement-description: Here: values are normalized to the negative (DMSO; defined as 0% autophagy induction) and positive (250nM Torin1; mTOR inhibitor; defined as maximal inducer of autophagy = 100%) control compounds and represented as % of autophagy induction. […] The impact of autophagy induction on cells is complex and depends on the affected target. As such, the magnitude of a phenotype may not be equally mirrored in the %-value of autophagy induction and vice versa. The dynamics of the induction may indicate the mode of activation: e.g. activation via phosphorylation or a signaling cascade may occur fast, while activation via transcription factors may take considerably longer. […] Of note, treatment concentrations may be sub-optimal for specific compounds, leading to false negative annotations.
# Assay type: functional, Homo sapiens
# cond: Compound Concentration 2 uM, Timepoint 12 hours, Culturing Media DMEM, 1 % Penicillin/Streptomycin, 10% Fetal bovin serum Add-On: No, Screening Media Control DMEM, Screening Media Samples DMEM
Property: autophagy induction; scope: individual compounds

{"columns": ["compound", "autophagy induction"],
 "data": [
  ["COc1ccc(NS(=O)(=O)c2sc3ccc(Cl)cc3c2C)cc1N1CCNCC1.Cl", "6.008%"],
  ["COc1ccc(/C=C/CCCCOc2ccc(C(=O)c3cccc(C(=O)O)c3)cc2CCC(=O)O)cc1", "-4.414%"],
  ["Cc1cc(NC(=O)Nc2ccc(N(C)C)cc2)c2cc(F)cc(F)c2n1", "-10.8002%"]
]}

Look at this compound and give its reported autophagy induction. "O=C1O[C@]2(CC[C@H](C(=O)Nc3ccn(-c4ccccc4F)n3)CC2)c2cnccc21"
13.2836%

Now try "CN(C)S(=O)(=O)c1ccc(NC(=S)N2CCC(C(O)(c3ccccc3)c3ccccc3)CC2)cc1" .
-9.723%

Now try "N[C@H](C(=O)O)c1ccc(C(=O)O)c(C(=O)O)c1" .
2.006%

Now try "FC(F)(F)c1cccc(-c2noc(-c3cc(-c4ccccc4)c(C(F)(F)F)s3)n2)c1" .
0.8817%

Now try "COc1ccc(S(=O)(=O)c2cc(OC)ccc2S(=O)(=O)c2ccc([C@H](C)NS(C)(=O)=O)cc2)cc1" .
5.036%

Now try "N#Cc1cccc(C(=O)Nc2cc(-c3ccccc3)nn2-c2ccccc2)c1" .
-6.937%

Now try C[C@@H](NCCc1ccc(O)cc1)[C@@H](O)c1ccc(O)cc1.Cl (relative stereo) .
18.1678%

Now try "C/C(=N\NC(=O)[C@@H]1C(=O)NC[C@H]1c1ccccc1)c1cccc(Br)c1" .
-4.579%

====

Property: ER-phagy suppression; scope: individual compounds
# Test system: U2OS
# measurement-description: Here: values are normalized to the positive (DMSO; basel flux = defined as 100% suppression) and negative (250nM Torin1; mTOR inhibitor; maximal inducer of autophagy defined as 0% suppression) control compounds and represented as % of ER-phagy suppression. […] The impact of autophagy induction on cells is complex and depends on the affected target. […] Of note, treatment concentrations may be sub-optimal for specific compounds, leading to false negative annotations.
# Type: functional, Homo sapiens
# cond: Compound Concentration 1 uM, Timepoint 24 hours, Culturing Media DMEM, 1 % Penicillin/Streptomycin, 10% Fetal bovin serum Add-On: blasticidin, Screening Media Control DMEM, 10% Fetal bovin serum Add-On: 1 µg/ml Doxycyclin, Screening Media Samples DMEM, 10% Fetal bovin serum Add-On: 1 µg/ml Doxycyclin 250nM Torin1
Give a bare numeral; the unit % is implied.

Solved cases below.
{"columns": ["compound", "observable", "endpoint-result"],
 "data": [
  ["C[C@@H]1CN(c2cc(-c3nn(C)c4ccc(OC5(C)CC5)cc34)ncn2)C[C@H](C)O1", "ER-phagy suppression", 32.7197],
  ["NC(=O)c1ccc2[nH]c(-c3ccc(Oc4ccc(Cl)cc4)cc3)nc2c1", "ER-phagy suppression", -28.4978],
  ["Cl.Cl.NC1(c2ccc(-c3nc4ccn5c(=O)[nH]nc5c4cc3-c3ccccc3)cc2)CCC1", "ER-phagy suppression", 48.6663],
  ["Cl.NC(=O)c1cnc(N[C@@H]2CCCC[C@@H]2N)nc1Nc1cccc(-n2nccn2)c1", "ER-phagy suppression", 25.4122],
  ["COc1cc(Nc2ccnc3ccc(Br)cc23)cc(OC)c1OC", "ER-phagy suppression", 57.8089]
]}

Look at this compound and give its reported ER-phagy suppression. CC1=C(C(=O)Nc2cc3cn[nH]c3cc2F)C(c2ccc(C(F)(F)F)cc2)CC(=O)N1 (stereo not drawn)
-2.49

Now try "NC(=O)c1ccc(N(C(N)=O)c2c(F)cccc2F)nc1-c1ccc(F)cc1F" .
34.6886

Now try "Cc1c(C(=O)Nc2ccc(Oc3ccnc4[nH]cc(-c5ccccc5)c34)c(F)c2)c(=O)n(-c2ccc(F)cc2)n1C" .
-15.4691

Now try "O=c1cc(-c2cccc3c2Sc2ccccc2S3)oc(N2CCOCC2)c1" .
58.138

Now try "Fc1ccc(-c2ncn(Cc3nc[nH]n3)c2-c2ccnc3[nH]ccc23)cc1" .
2.249

Now try "CNC(=O)c1ccccc1Nc1cc(Nc2ccc(N3CCOCC3)cc2OC)ncc1C(F)(F)F" .
-10.4532

Now try "CN1CCN(Cc2ccc(Nc3ncc(Cl)c(Nc4ccccc4S(=O)(=O)N(C)C)n3)cc2)CC1" .
4.178

Now try "Cc1ccc(NC(=O)Nc2cc(C(F)(F)F)ccc2F)cc1Nc1ccc2c(c1)NC(=O)/C2=C\c1ccc[nH]1" .
-2.579

Now try "CN(C)C/C=C/C(=O)Nc1cc2c(Nc3ccc(F)c(Cl)c3)ncnc2cc1O[C@H]1CCOC1" .
25.6226

Now try "CN(C)C(=O)/C(C#N)=C/c1ccc(-c2nc3cnc4c(ccn4C)c3n2C2CCCCC2)o1" .
-19.1708

Now try "CCCCNc1ncc(-c2ccc(CN3CCOCC3)cn2)c(N[C@H]2CC[C@H](O)CC2)n1" .
-7.3145

Now try "O=c1[nH]c2ccc(Cl)cc2c(N[C@@H]2CN3CCC2CC3)c1-c1nc2ccccc2[nH]1" .
62.247

Now try "Cc1ccc(-c2cnc([C@@]3(O)CC[C@H](C(=O)O)C(C)(C)C3)s2)cc1Nc1cccc(C(F)(F)F)n1" .
-4.2474
